# assayed system: IsdH linker-NEAT3 (Staphylococcus aureus Mu50, UniProt Q931P4)
# Sequence (Q931P4 476-664): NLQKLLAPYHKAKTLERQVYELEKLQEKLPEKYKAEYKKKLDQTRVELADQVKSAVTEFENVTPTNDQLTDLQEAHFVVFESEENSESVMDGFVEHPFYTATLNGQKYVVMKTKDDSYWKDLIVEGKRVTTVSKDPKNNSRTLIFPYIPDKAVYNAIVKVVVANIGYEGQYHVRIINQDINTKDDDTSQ
# measurement protocol: SPR
# condition parameters: both partners purified
pKd: −log10 of the molar value.
# Lookup of reported pKd keyed by entry
observation type: pKd

• VHH6 F108A (VHH, source: E. coli BL21(DE3), purified as the WT (Ni-NTA, SEC)) VHH: ELQLVESGGGLVQPGGSLSLSCEVSGFSFDDVDNFIIAWFRQAPGKEREGVSFLRKYDMSTYYAESVKGRFTISSDNARDTVYLQMTNLKPEDTAVYYCALDREGFVAEQGMDFWGKGTQVTVSS = 8.59
• VHH6 E104A (VHH, source: E. coli BL21(DE3), purified as the WT (Ni-NTA, SEC)) VHH: ELQLVESGGGLVQPGGSLSLSCEVSGFSFDDVDNFIIAWFRQAPGKEREGVSFLRKYDMSTYYAESVKGRFTISSDNARDTVYLQMTNLKPEDTAVYYCALDRAGFVFEQGMDFWGKGTQVTVSS = 8.19
• VHH6 D33A (VHH, source: E. coli BL21(DE3), purified as the WT (Ni-NTA, SEC)) VHH: ELQLVESGGGLVQPGGSLSLSCEVSGFSFDDVANFIIAWFRQAPGKEREGVSFLRKYDMSTYYAESVKGRFTISSDNARDTVYLQMTNLKPEDTAVYYCALDREGFVFEQGMDFWGKGTQVTVSS = 8.68
• VHH6 V107A (VHH, source: E. coli BL21(DE3), purified as the WT (Ni-NTA, SEC)) VHH: ELQLVESGGGLVQPGGSLSLSCEVSGFSFDDVDNFIIAWFRQAPGKEREGVSFLRKYDMSTYYAESVKGRFTISSDNARDTVYLQMTNLKPEDTAVYYCALDREGFAFEQGMDFWGKGTQVTVSS = 8.01
